# credit: patent US20040110787A1

Subject of test: HCMV polymerase (Human cytomegalovirus, UniProt P08546)
Construct: made in house; host or cells: recombinant baculovirus-infected SF-9 cells
Sequence (P08546 whole entry): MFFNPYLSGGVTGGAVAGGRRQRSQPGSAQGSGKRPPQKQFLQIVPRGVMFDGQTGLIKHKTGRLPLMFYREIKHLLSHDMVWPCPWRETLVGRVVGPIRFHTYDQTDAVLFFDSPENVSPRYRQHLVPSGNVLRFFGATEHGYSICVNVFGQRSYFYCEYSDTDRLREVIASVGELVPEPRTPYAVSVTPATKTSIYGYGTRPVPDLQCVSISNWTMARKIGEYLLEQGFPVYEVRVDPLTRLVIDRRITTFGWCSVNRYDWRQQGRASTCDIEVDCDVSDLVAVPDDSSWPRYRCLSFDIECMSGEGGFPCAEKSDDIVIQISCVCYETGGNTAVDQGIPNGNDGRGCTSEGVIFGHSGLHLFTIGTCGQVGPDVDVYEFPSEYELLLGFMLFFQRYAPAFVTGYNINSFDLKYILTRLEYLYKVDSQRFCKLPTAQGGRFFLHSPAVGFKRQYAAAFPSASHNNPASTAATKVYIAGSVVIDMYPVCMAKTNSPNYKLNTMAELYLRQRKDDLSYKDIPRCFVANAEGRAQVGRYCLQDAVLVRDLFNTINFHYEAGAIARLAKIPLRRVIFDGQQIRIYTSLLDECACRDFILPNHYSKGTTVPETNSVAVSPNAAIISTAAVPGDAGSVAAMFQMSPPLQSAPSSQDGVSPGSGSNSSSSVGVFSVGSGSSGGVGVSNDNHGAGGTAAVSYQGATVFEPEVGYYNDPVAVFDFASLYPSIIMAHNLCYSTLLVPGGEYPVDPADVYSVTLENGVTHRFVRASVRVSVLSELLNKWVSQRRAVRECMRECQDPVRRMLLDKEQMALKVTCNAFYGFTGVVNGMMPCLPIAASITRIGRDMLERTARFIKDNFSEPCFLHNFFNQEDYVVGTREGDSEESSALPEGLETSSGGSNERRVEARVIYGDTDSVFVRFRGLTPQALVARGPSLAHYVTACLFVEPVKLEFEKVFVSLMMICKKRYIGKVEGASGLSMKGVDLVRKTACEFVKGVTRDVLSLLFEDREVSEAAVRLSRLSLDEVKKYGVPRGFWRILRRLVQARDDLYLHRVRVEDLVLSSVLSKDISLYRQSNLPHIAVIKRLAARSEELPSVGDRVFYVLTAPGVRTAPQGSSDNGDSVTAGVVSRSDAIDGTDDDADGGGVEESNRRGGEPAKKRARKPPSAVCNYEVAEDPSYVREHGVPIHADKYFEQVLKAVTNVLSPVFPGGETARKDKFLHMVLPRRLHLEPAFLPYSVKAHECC
Experimental details: HCMV polymerase scintillation proximity assay (SPA)
Type: biochemical
Condition context: HCMV polymerase, SPA; read-out: Polymerase IC50 HCMV
Metric name: IC50 (nM)
Report the figure in nM without appending any unit label.

COCCn1cc(C(=O)NCc2ccc(Cl)cc2)c(=O)c2cc(CN(C)CC(O)c3cnccn3)sc21 (racemic) = 1030
CN(Cc1cc2c(=O)c(C(=O)NCc3ccc(Cl)cc3)cn(C)c2s1)CC(O)c1ccncc1 (racemic) = 200
CN(Cc1cc2c(=O)c(C(=O)NCc3ccc(Br)cc3)cn(C)c2s1)C[C@@H](O)c1ccccn1 = 150
CN(Cc1cc2c(=O)c(C(=O)NCc3ccc(Cl)cc3)cn(C)c2s1)CC(O)c1ccc2ccccc2n1 (racemic) = 70
Cc1cccc(C(O)CN(C)Cc2cc3c(=O)c(C(=O)NCc4ccc(Cl)cc4)cn(C)c3s2)n1 (racemic) = 620
CN(Cc1cc2c(=O)c(C(=O)NCc3ccc(C#N)cc3)cn(C)c2s1)C[C@@H](O)c1ccccn1 = 230

Here's the next entry for you.
Measured IC50 of CN(Cc1cc2c(=O)c(C(=O)NCc3ccc(F)cc3)cn(C)c2s1)C[C@@H](O)c1ccccn1 : 280

---

Subject of test: HCMV polymerase (Human cytomegalovirus, UniProt P08546)
Construct: made in house; host or cells: recombinant baculovirus-infected SF-9 cells
Experimental details: HCMV polymerase scintillation proximity assay (SPA)
Assay type: biochemical
Condition context: HCMV polymerase, SPA; read-out: Polymerase IC50 HCMV
Metric name: IC50 (nM)
Report the figure in nM without appending any unit label.

CN(Cc1cc2c(=O)c(C(=O)NCc3ccc(Cl)cc3)cn(C)c2s1)C[C@@H](O)c1ncccn1 = 50
CN(Cc1cc2c(=O)c(C(=O)NCc3ccc(Cl)cc3)cn(CCOCCO)c2s1)C[C@@H](O)c1cnccn1 = 580
CCCn1cc(C(=O)NCc2ccc(Cl)cc2)c(=O)c2cc(CN(C)CC(O)c3ccccn3)sc21 (racemic) = 1070

Here's the next entry for you.
Measured IC50 of CN(Cc1cc2c(=O)c(C(=O)NCc3ccc(Cl)cc3)cn(C)c2s1)CC(O)c1ccccn1 (racemic) : 90

---

# maps each entry to its melting point

Would you please look over these solved cases?
CN(Cc1cc2c(=O)c(C(=O)NCc3ccc(Cl)cc3)cn(C)c2s1)CC(O)c1ccncc1 (racemic) [Example 3] = 185 to 188 °C
CN(Cc1cc2c(=O)c(C(=O)NCc3ccc(Cl)cc3)cn(C)c2s1)CC(O)c1ncccn1 (racemic) [Example 8] = 181 °C
COCCn1cc(C(=O)NCc2ccc(Cl)cc2)c(=O)c2cc(CN(C)CC(O)c3cnccn3)sc21 (racemic) [Example 21] = 122 to 123 °C

Here's the next entry for you.
Measured melting point of CCn1cc(C(=O)NCc2ccc(Cl)cc2)c(=O)c2cc(CN(C)CC(O)c3cnccn3)sc21 (racemic) [Example 13] : 130 to 133 °C

---

# maps each entry to its melting point

Measured melting point of CN(Cc1cc2c(=O)c(C(=O)NCc3ccc(Cl)cc3)cn(C)c2s1)CC(O)c1ccc2ccccc2n1 (racemic) : 155 to 160 °C

Measured melting point of CN(Cc1cc2c(=O)c(C(=O)NCc3ccc(Cl)cc3)cn(C)c2s1)C[C@@H](O)c1ccccn1 : 139 to 144 °C

Measured melting point of CN(Cc1cc2c(=O)c(C(=O)NCc3ccc(C#N)cc3)cn(C)c2s1)C[C@@H](O)c1ccccn1 : 167 to 169 °C

Measured melting point of CN(Cc1cc2c(=O)c(C(=O)NCc3ccc(Cl)cc3)cn(C)c2s1)CC(O)c1ccccn1 (racemic) : 145 to 147 °C
